For each record, write down the corresponding self-cleavage kobs at 10000 uM GlcN6P.
B1: glmS ribozyme (parent)
chain: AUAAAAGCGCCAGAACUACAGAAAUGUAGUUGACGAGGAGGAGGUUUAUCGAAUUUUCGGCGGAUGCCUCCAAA

- Variants of: B1
- assay.text: self-cleavage kobs at 10000 uM GlcN6P; higher = faster cleavage; RNA array
- measurement.conditions: with glucosamine-6-phosphate
Variants at the floor of the assay were thinned out.

Reference set, count: 8
Fill in: self-cleavage kobs at 10000 uM GlcN6P of AUAAAAGCGCCAGAACUACAGAAAUGUAGUUGACGAGGAGGAAGUUUAUCUAAUUUUCGGCGCAUGCCUCCAAA is ___
< 1e-05 s⁻¹

Fill in: self-cleavage kobs at 10000 uM GlcN6P of AUAAAAGCGCCAGAACUACAGAAAUGUAGUUGACGAGGAGGAGGGUUAUCGAAUUUUCGGCGGAUGCCUACAAA is ___
0.000215 s⁻¹

Fill in: self-cleavage kobs at 10000 uM GlcN6P of AUAAAAGCGCCAGAACUACAGAAAUGUAGUUGACGAGAAAGAGGUUUAUCGAAUUUUCGGCGGAUGCCUCCAAA is ___
< 1e-05 s⁻¹

Fill in: self-cleavage kobs at 10000 uM GlcN6P of AUAAAUGCGCCAGAACUACAGAAAUGUAGUCGACGAGGAGGAGGUUUAUGGAAUUUUCGGCGGAUGCCUCCAAA is ___
3.4e-05 s⁻¹

Fill in: self-cleavage kobs at 10000 uM GlcN6P of AUAAAAGCACCAGGACUACAGAAAUGUAGAUGACGAGGAGGAGGUUUAUCGAAUUUUCGGCGGAUGCCUCCAAA is ___
4.06e-05 s⁻¹

Fill in: self-cleavage kobs at 10000 uM GlcN6P of AUAAAAGCGCCAGAAUUACAGAAAUGUAGUUGACGAGGAGGAGGUUUAUCGAAUUUUCGGCGGAUGGCUCCAAA is ___
0.000664 s⁻¹

Fill in: self-cleavage kobs at 10000 uM GlcN6P of AUAAAAGCGCCAGACCUACAGAAAUGUAGUUCACGAGGAGGAGGUUUAUCGAAUCUCCGGCGGACGCCUCCAAA is ___
< 1e-05 s⁻¹

Fill in: self-cleavage kobs at 10000 uM GlcN6P of AUAAAAGCGCCAGAACUACAGAAAUGUAGUUGACGAGGAGGAGGUUUAUCGGAUUUUCGGCGGAUGCCUACAAA is ___
5.24e-05 s⁻¹

Batch request: self-cleavage kobs at 10000 uM GlcN6P for each of the following variants.
1. AUAAAAGUGCCAGAACUACAGAAAUGUAGUUGGCGAGGAGGAGGUUUAUCGAAUUUUCGGCGGAUGCCUCCAAA
2. AUAAAAGCGCUAGAACUACAGAAAUGUAGUUGGCGAUGAGGAGGUUUAUCGAAUUUUCGGCGGAUGCCUCAAAA
3. AUAAAAGCGGCAGAACUACAGAAAUGUAGUUGACGAGGAAGAGGUUUAUCGAAUUUUCGGCGGAUGCCUACAAA

1: < 1e-05 s⁻¹; 2: < 1e-05 s⁻¹; 3: < 1e-05 s⁻¹
